Numbers sourced from a melting point compilation (Tetko et al.; mined from patent text by program, amines drawn as free bases though some values may be those of a salt).

# key: entry, value: melting point
MEASURED_METRIC: melting point

• CON(C)C(=O)[C@@H](CO)NC(=O)OC(C)(C)C = 115 to 116 °C
• CC(=O)c1ccc2c(c1)ncn2-c1cccc(-n2ccnc2)c1 = 205 to 206 °C
• CC(C)(C)OC(=O)NC(=N)c1ccc(C(=O)O)cc1 = > 200 °C
• CC(C)(C)OC(=O)N1CCN(c2nsnc2Cl)CC1 = 83 to 86 °C
• CS(=O)(=O)Cc1cccc(CNC(=O)c2nc3scc(COCc4ccc(C(=O)O)cc4)c3c(=O)[nH]2)c1 = 246 to 248 °C
• CNC(=N[N+](=O)[O-])N(Cc1cnc(Cl)s1)C(=O)N1CCOCC1 = 130 to 131 °C
• Nc1cc(Cl)cc(Cl)c1C(=O)NCc1ccc(F)cc1 = 89 to 94 °C
• O=c1c2cnc(-c3ccccc3)nc2sn1CCN1CCOCC1 = 163 to 165 °C
• COC(=O)C(c1ccc(Cl)cc1)c1ncc(C(F)(F)F)cc1Cl (centres undefined) = 103 to 104 °C
• COc1ccc(C(O)c2ccccc2)cc1OC1CCCC1 (centres undefined) = 82.5 to 83 °C
• COc1ccc(NC(=O)N(Cc2ccccc2)Cc2cccnc2)c(NC(=O)c2cc(C(C)(C)C)c(O)c(C(C)(C)C)c2)c1 = 120 to 128 °C
• CCOC(=O)c1ncc(C)nc1O = 153 °C
• COC(=O)CSC(c1ccccc1Cl)c1ccccc1Cl = 90 to 92 °C
• CCOC(=O)c1cn2c(cc(Cl)c3ccc(Br)cc32)n1 = 206 to 207 °C
• CC1=Cc2ccsc2Sc2ccccc21 = 70 to 71 °C
• CCOC(=O)C1=CNC2=C(C(=O)CCC2)C1c1nccs1 (centres undefined) = 239 to 240 °C
• NS(=O)(=O)c1ccc(C2(c3nc4c(F)cccc4s3)C=C(C(F)F)NN2)cc1 (centres undefined) = 243 to 245 °C
• COc1ccc2c(-c3ccc(F)cc3F)noc2c1Cl = 189 to 191 °C
• Cc1nc(-c2ccccc2)nc(-c2cccc([N+](=O)[O-])c2)c1C(=O)N1CCN(C)CC1 = 153 to 155 °C
• COc1ccc(C(=O)Nc2ccccc2)cc1NC(=S)Nc1cccnc1 = 178 to 179 °C
• CCCCCC[C@@H](F)COc1cnc(-c2ccc(CCCCC)c(F)c2F)nc1 = 74.7 °C
• CN1CCN(c2cc(Cl)cc3c2c(=O)n(Cc2cccc(N)c2)c(=O)n3Cc2ccccc2)CC1 = 260 to 265 °C
• CCOC(=O)[C@@H]1CCC(=O)N1C(=O)OC(C)(C)C = 48 to 49 °C
• CN(c1cnc(-c2ccccc2)c(-c2ccccc2)n1)C1CCc2c(OCC(=O)O)cccc21 (centres undefined) = 182 to 184 °C
• CCn1cc(C(=O)NN)c(=O)c2ccc(-c3ccncc3)cc21 = 274 to 275 °C
• CC(O)[C@@H](Cc1ccccc1)NC(=O)OC(C)(C)C (some centres undefined) = 127 °C
• Cc1cc(C(=O)N2Cc3ccccc3Cc3ccccc32)ccc1N = 203 to 204 °C
• O=C(Nc1cccc(S(=O)(=O)N2CCOCC2)c1)c1cnn2c(C(F)(F)F)cc(-c3ccc(Cl)c(Cl)c3)nc12 = 239 °C
• CCCCN(c1nc(NCCCCCCN)nc(N(CCCC)C2CC(C)(C)N(C)C(C)(C)C2)n1)C1CC(C)(C)N(C)C(C)(C)C1 = 125 °C
• CC(C)(CI)c1cc(Cl)nnc1Cl = 104 to 106 °C
• COC(=O)CCC(C(=O)C=Cc1ccc(O)c(OC(F)(F)F)c1)C(=O)C=Cc1ccc(O)c(OC(F)(F)F)c1 (centres undefined) = 142 to 143 °C
• COc1ccc(CNc2nc(-c3ccc(C(=O)O)cc3)nc3c2c2c(n3C(C)c3ccccc3)CCCC2)cc1Cl (centres undefined) = 179 °C
• CC(C)=CCN1Cc2c(Cl)ccc3[nH]c(=S)n(c23)C[C@@H]1C = 160 °C
• COC(=O)CC(Oc1c(Br)cc(-c2c3ccccc3c(Br)c3sc4ccccc4c23)cc1Br)C(=O)OC (centres undefined) = 118 to 121 °C
• O=C(O)[C@H]1C[C@H](NC(=O)N(c2ccccc2)c2ccccc2)c2c(Cl)cc(Cl)cc2N1 (relative stereo) = 214 to 216 °C
• CCNc1cc(-c2c[nH]c(C)n2)ccn1 = 214 to 216 °C
• OC1CCc2c(-c3ccccc3)cccc21 (centres undefined) = 80.5 to 81.5 °C
• CCOC(=O)c1ccc(OCC2CCCCC2)c([N+](=O)[O-])c1 = 79 to 80 °C
• Cc1cc(OCCCCOCc2ccccc2)cc(C)c1N=Nc1ccc([N+](=O)[O-])cc1 = 68 to 69.5 °C

---

MEASURED_METRIC: melting point

* O=[N+]([O-])c1ccc(O)c(C(F)(F)F)c1 | 103 to 104 °C
* C=CCOC(=O)Nc1c(C#N)cnn1-c1ccc(Cl)c(Cl)c1Cl | 154 to 155 °C
* COC(=O)CCC#Cc1cc(Cl)ccc1NS(=O)(=O)c1ccc2nc(N)sc2c1 | 175 °C
* COCCn1cc(C=O)c(-c2ccc([N+](=O)[O-])o2)n1 | 137 to 138 °C
* CCOCCN(CC)c1ccc(-c2ccc3c(c2)C=C(C(=O)Nc2ccc(CN(C)C4CCOCC4)cc2)CCS3(=O)=O)cc1 | 194 to 197 °C
* Ic1ccc(SSc2ccc(I)cc2)cc1 | 122 to 123 °C
* CN(CCCOc1ccc(CC2SC(=O)NC2=O)cc1)c1nc2ccccc2o1 (centres undefined) | 171 to 173 °C
* O=C(O)c1ccc(CCCC2SCC(=O)N2CCC2(O)CCCCCC2)cc1 (centres undefined) | 146 to 148 °C
* OCCCCCCCCOc1ccc2ccccc2c1 | 67 to 69 °C
* O=C(O)c1cn(-c2ccc(F)cc2)c2cc(F)c(F)cc2c1=O | 252 to 256 °C
* CCOCc1nc2c(N)nc3ccccc3c2n1CC1(O)CCN(C(=O)Nc2ccccc2)CC1 | 184 to 186 °C
* COc1cc(CBr)cc(OC)c1 | 70 to 72 °C
* CCC(CC)(CCS(N)(=O)=O)COc1nn2ncnc2cc1C | 148 to 149 °C
* CCc1cc(=O)c2nc(OC)ccc2[nH]1 | 279 to 281 °C
* CSC1C(=O)Nc2ccc(Oc3ccc(C(F)(F)F)c(Cl)c3)cc21 (centres undefined) | 174 to 178 °C
* CN(c1cccc2cc(C3=NCC(CN4CCS(=O)CC4)S3)[nH]c12)S(=O)(=O)c1ccccn1 (centres undefined) | 193 to 194 °C
* COc1cc2ncnc(NC3=CC(=O)C(N4CCOCC4)=CC3=O)c2cc1OC | 249 to 250 °C
* CC#CCOc1ccc(C(=O)NC[C@@H](C(=O)NO)N2CCCCC2)cc1 | 144 °C
* COc1cc(C=CC(=O)Nc2c(-c3ccccc3Cl)c3cc(C)c(C)cc3n(C)c2=O)cc(OC)c1OC(C)=O | 259 to 260 °C
* CN(CCCCCC(=O)O)c1cnc(-c2ccccc2)c(-c2ccccc2)n1 | 159 to 160 °C
* O=C(O)C1=CC(CF)(CF)Oc2ccc(Cl)cc21 | 151 to 152 °C
* N#CCC1=C(n2nc(-c3c(-c4ccccc4)nn4ccccc34)ccc2=O)CCCC1 | 74 to 76 °C
* O=C(Nc1ccc(Cl)cc1)C1=C(N2CCCC2)CS(=O)(=O)N(Cc2ccc(Cl)cc2)c2ccccc21 | 190 to 194 °C
* COc1ccc(N2C(=O)C(N3C(=O)c4ccccc4C3=O)C2C(C)=Cc2ccccc2)cc1 (centres undefined) | 105 to 107 °C
* COc1ccc(-n2nc3c(cc2=O)CCCc2sc(CO)cc2-3)cc1 | 130 to 131 °C
* COCCc1nc2c(N)nc3cc(OCc4ccccc4)ccc3c2n1CCCCNS(C)(=O)=O | 144 to 148 °C
* Cc1c(F)cccc1NC(=O)c1ccccc1CN1C(=O)C2(COc3cc4c(cc32)CCO4)c2ccccc21 (centres undefined) | > 230 °C
* CC(=O)Nc1ccc(C(=O)NC2=Nc3cc(N4CCOCC4)ccc3C3=NCCN23)cn1 | 228 °C
* CCCCC(=O)C(Cc1ccc(C(=O)OC)cc1)c1ccccc1 (centres undefined) | 58 °C
* CS(=O)c1ccc(-c2oncc2CCCO)cc1 (centres undefined) | 73 to 74 °C
* CC(=NNc1ccc(C2=NNC(=O)CC2C)cc1)c1cnsn1 (centres undefined) | 241 to 245 °C
* O=C1CCC(c2ccc(NC(=O)CCNCCc3ccccc3)cc2)=NN1 | 130 to 132 °C
* CCC1SCCCN1C(=S)Nc1cccc(Br)c1 (centres undefined) | 77 to 79 °C
* COc1cc(C(=O)NC2CCC(N(C)C)CC2)ccc1Nc1ncc2c(n1)N(C1CCCCC1)CC(F)(F)C(=O)N2C (centres undefined) | 208 to 214 °C
* C=Cc1ccc(Nc2nc(Cl)nc(Cl)c2Cl)cc1 | 112 to 114 °C
* COC(=O)Nc1cccc(OCC(O)CN(Cc2ccccc2)C(C)(C)C)c1O (centres undefined) | 130 to 133 °C
* COc1cc2c(cc1-c1cnccn1)-c1c(-c3cncs3)c3c(n1CC2)C(=O)N(C(C)(C)C)CCCOC3 | 235 to 236 °C
* CC(C)(C)C(=O)OCN1C(=O)NC2(C1=O)C(=O)N(Cc1ccc(Br)cc1F)c1ccccc12 (centres undefined) | 220 to 222 °C
* COc1ccccc1-c1n[nH]c2c(NCCO)cc(C)nc12 | 193 to 194 °C
